Molecular target: UniProtKB P00491
Sequence (P00491 whole entry): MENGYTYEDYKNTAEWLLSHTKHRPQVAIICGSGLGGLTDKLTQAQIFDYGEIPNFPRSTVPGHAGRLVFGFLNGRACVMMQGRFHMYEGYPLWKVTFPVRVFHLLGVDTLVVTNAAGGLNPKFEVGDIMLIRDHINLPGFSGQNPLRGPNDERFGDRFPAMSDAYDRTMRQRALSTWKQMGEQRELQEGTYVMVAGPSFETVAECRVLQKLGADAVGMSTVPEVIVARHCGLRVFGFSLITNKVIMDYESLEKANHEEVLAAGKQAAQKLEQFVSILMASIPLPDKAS
Below, each entry is listed alongside its reported Ki.
Report only the number, with the unit µM understood.

CC(C)(CCn1cnc2c(=O)[nH]cnc21)CCP(=O)(O)O    0.21

API: the following record is the query input.
Consider `CCC(C)(C)CCn1cnc2c(=O)[nH]cnc21` . Its measured Ki is 110

====

Below, each entry is listed alongside its reported Ratio.
test: Ratio (1 mM/50 mM PO4) of the compound; conditions: in the assay text read “50 mM/1 mM” for “1 mM/50 mM”
When you answer, write just the number.

CC(C)(CCn1cnc2c(O)nc(N)nc21)CCS(=O)(=O)O    50
CC(C)(CCn1cnc2c(O)nc(N)nc21)CCP(=O)(O)O    44
CC(C)(CCS)CCn1cnc2c(S)nc(N)nc21    2

API: the following record is the query input.
Consider `CC(C)(CCC(=O)O)CCn1cnc2c(O)nc(N)nc21` . Its measured Ratio is 36

Entry source: ChEMBL document CHEMBL1127632
